Provide the reported zone of inhibition at 200 µg/mL of each item.
System: Bacillus subtilis
Assay: Antibacterial activity against Bacillus subtilis assessed as zone of inhibition at 200 ug/ml after 24 hrs by disc diffusion method
Assay type: functional
Details: read-out: DIZ
Express the reported value numerically, then name its unit.

Q) Fill in reported zone of inhibition at 200 µg/mL for this entry: Cc1ccc(-c2nnc(CSC(SCc3nnc(-c4ccc(C)cc4)s3)=C(C#N)C#N)s2)cc1
A) 24 mm

Q) Fill in reported zone of inhibition at 200 µg/mL for this entry: N#CC(C#N)=C(SCc1nnc(-c2ccc(Cl)cc2)o1)SCc1nnc(-c2ccc(Cl)cc2)o1
A) 16 mm

Q) Fill in reported zone of inhibition at 200 µg/mL for this entry: Cc1ccc(-c2nnc(CSC(SCc3nnc(-c4ccc(C)cc4)o3)=C(C#N)C#N)o2)cc1
A) 12 mm

Q) Fill in reported zone of inhibition at 200 µg/mL for this entry: N#CC(C#N)=C(SCc1nnc(-c2ccc(Cl)cc2)s1)SCc1nnc(-c2ccc(Cl)cc2)s1
A) 32 mm

Q) Fill in reported zone of inhibition at 200 µg/mL for this entry: O=C(N[C@H](CO)[C@H](O)c1ccc([N+](=O)[O-])cc1)C(Cl)Cl [CHLORAMPHENICOL]
A) 41 mm

Q) Fill in reported zone of inhibition at 200 µg/mL for this entry: CCOC(=O)CSC(SCC(=O)OCC)=C(C#N)C#N
A) 14 mm

Q) Fill in reported zone of inhibition at 200 µg/mL for this entry: N#CC(C#N)=C(SCc1nnc(-c2ccccc2)s1)SCc1nnc(-c2ccccc2)s1
A) 27 mm

Q) Fill in reported zone of inhibition at 200 µg/mL for this entry: N#CC(C#N)=C(SCc1nnc(-c2ccccc2)o1)SCc1nnc(-c2ccccc2)o1
A) 16 mm

----------
Tested on: Radical scavenging activity
Test: Antioxidant activity against DPPH free radical scavenging activity at 100 uM after 20 mins by spectrophotometric analysis at pH 7.5
Assay type: functional
Provide the reported inhibition of each item.
Expressed in %, but write only the number.

Q) Fill in reported inhibition for this entry: N#CC(C#N)=C(SCc1nnc(-c2ccc(Cl)cc2)o1)SCc1nnc(-c2ccc(Cl)cc2)o1
A) 73.7

Q) Fill in reported inhibition for this entry: N#CC(C#N)=C(SCc1nnc(-c2ccccc2)o1)SCc1nnc(-c2ccccc2)o1
A) 63.5

Q) Fill in reported inhibition for this entry: N#CC(C#N)=C(SCc1nnc(-c2ccc(Cl)cc2)s1)SCc1nnc(-c2ccc(Cl)cc2)s1
A) 30.2

Q) Fill in reported inhibition for this entry: N#CC(C#N)=C(SCc1nnc(-c2ccccc2)s1)SCc1nnc(-c2ccccc2)s1
A) 26.3

Q) Fill in reported inhibition for this entry: CCOC(=O)CSC(SCC(=O)OCC)=C(C#N)C#N
A) 46.3

Q) Fill in reported inhibition for this entry: Cc1ccc(-c2nnc(CSC(SCc3nnc(-c4ccc(C)cc4)s3)=C(C#N)C#N)s2)cc1
A) 21.6

Q) Fill in reported inhibition for this entry: O=C1O[C@H]([C@@H](O)CO)C(O)=C1O
A) 95.3

Q) Fill in reported inhibition for this entry: Cc1ccc(-c2nnc(CSC(SCc3nnc(-c4ccc(C)cc4)o3)=C(C#N)C#N)o2)cc1
A) 52.5

----------
Tested on: Fusarium solani
Experiment: Antifungal activity against Fusarium solani assessed as zone of inhibition at 200 ug/ml after 48 hrs by disc diffusion method
Type: functional
Conditions: read-out: DIZ
Provide the reported zone of inhibition at 200 µg/mL of each item.
Expressed in mm, but write only the number.

Q) Fill in reported zone of inhibition at 200 µg/mL for this entry: N#CC(C#N)=C(SCc1nnc(-c2ccccc2)s1)SCc1nnc(-c2ccccc2)s1
A) 28

Q) Fill in reported zone of inhibition at 200 µg/mL for this entry: CC(=O)N1CCN(c2ccc(OCC3COC(Cn4ccnc4)(c4ccc(Cl)cc4Cl)O3)cc2)CC1 (stereo not drawn)
A) 42

Q) Fill in reported zone of inhibition at 200 µg/mL for this entry: Cc1ccc(-c2nnc(CSC(SCc3nnc(-c4ccc(C)cc4)s3)=C(C#N)C#N)s2)cc1
A) 25

Q) Fill in reported zone of inhibition at 200 µg/mL for this entry: N#CC(C#N)=C(SCc1nnc(-c2ccc(Cl)cc2)o1)SCc1nnc(-c2ccc(Cl)cc2)o1
A) 22

Q) Fill in reported zone of inhibition at 200 µg/mL for this entry: Cc1ccc(-c2nnc(CSC(SCc3nnc(-c4ccc(C)cc4)o3)=C(C#N)C#N)o2)cc1
A) 17

Q) Fill in reported zone of inhibition at 200 µg/mL for this entry: N#CC(C#N)=C(SCc1nnc(-c2ccc(Cl)cc2)s1)SCc1nnc(-c2ccc(Cl)cc2)s1
A) 32

Q) Fill in reported zone of inhibition at 200 µg/mL for this entry: N#CC(C#N)=C(SCc1nnc(-c2ccccc2)o1)SCc1nnc(-c2ccccc2)o1
A) 21

Q) Fill in reported zone of inhibition at 200 µg/mL for this entry: CCOC(=O)CSC(SCC(=O)OCC)=C(C#N)C#N
A) 15

----------
System: Aspergillus niger
Experiment: Antifungal activity against Aspergillus niger assessed as zone of inhibition at 200 ug/ml after 48 hrs by disc diffusion method
Format: functional
Conditions: read-out: DIZ
Observable: zone of inhibition at 200 µg/mL (mm)
Expressed in mm, but write only the number.

Q) Given CC(=O)N1CCN(c2ccc(OCC3COC(Cn4ccnc4)(c4ccc(Cl)cc4Cl)O3)cc2)CC1 (stereo not drawn) [KETOCONAZOLE] , report its zone of inhibition at 200 µg/mL on Aspergillus niger.
A) 39

Q) Given Cc1ccc(-c2nnc(CSC(SCc3nnc(-c4ccc(C)cc4)o3)=C(C#N)C#N)o2)cc1 , report its zone of inhibition at 200 µg/mL on Aspergillus niger.
A) 11

Q) Given N#CC(C#N)=C(SCc1nnc(-c2ccc(Cl)cc2)o1)SCc1nnc(-c2ccc(Cl)cc2)o1 , report its zone of inhibition at 200 µg/mL on Aspergillus niger.
A) 17

Q) Given N#CC(C#N)=C(SCc1nnc(-c2ccc(Cl)cc2)s1)SCc1nnc(-c2ccc(Cl)cc2)s1 , report its zone of inhibition at 200 µg/mL on Aspergillus niger.
A) 29

Q) Given N#CC(C#N)=C(SCc1nnc(-c2ccccc2)o1)SCc1nnc(-c2ccccc2)o1 , report its zone of inhibition at 200 µg/mL on Aspergillus niger.
A) 14

Q) Given Cc1ccc(-c2nnc(CSC(SCc3nnc(-c4ccc(C)cc4)s3)=C(C#N)C#N)s2)cc1 , report its zone of inhibition at 200 µg/mL on Aspergillus niger.
A) 21

Q) Given N#CC(C#N)=C(SCc1nnc(-c2ccccc2)s1)SCc1nnc(-c2ccccc2)s1 , report its zone of inhibition at 200 µg/mL on Aspergillus niger.
A) 24

Q) Given CCOC(=O)CSC(SCC(=O)OCC)=C(C#N)C#N , report its zone of inhibition at 200 µg/mL on Aspergillus niger.
A) 12

----------
Test system: Escherichia coli
Assay: Antibacterial activity against Escherichia coli assessed as zone of inhibition at 100 ug/ml after 24 hrs by disc diffusion method
Type: functional
Details: read-out: DIZ
Provide the reported zone of inhibition at 100 µg/mL of each item.
Expressed in mm, but write only the number.

Q) Fill in reported zone of inhibition at 100 µg/mL for this entry: N#CC(C#N)=C(SCc1nnc(-c2ccc(Cl)cc2)s1)SCc1nnc(-c2ccc(Cl)cc2)s1
A) 25

Q) Fill in reported zone of inhibition at 100 µg/mL for this entry: N#CC(C#N)=C(SCc1nnc(-c2ccccc2)o1)SCc1nnc(-c2ccccc2)o1
A) 8

Q) Fill in reported zone of inhibition at 100 µg/mL for this entry: N#CC(C#N)=C(SCc1nnc(-c2ccc(Cl)cc2)o1)SCc1nnc(-c2ccc(Cl)cc2)o1
A) 8

Q) Fill in reported zone of inhibition at 100 µg/mL for this entry: Cc1ccc(-c2nnc(CSC(SCc3nnc(-c4ccc(C)cc4)s3)=C(C#N)C#N)s2)cc1
A) 17

Q) Fill in reported zone of inhibition at 100 µg/mL for this entry: O=C(N[C@H](CO)[C@H](O)c1ccc([N+](=O)[O-])cc1)C(Cl)Cl [CHLORAMPHENICOL]
A) 40

Q) Fill in reported zone of inhibition at 100 µg/mL for this entry: N#CC(C#N)=C(SCc1nnc(-c2ccccc2)s1)SCc1nnc(-c2ccccc2)s1
A) 21

Q) Fill in reported zone of inhibition at 100 µg/mL for this entry: CCOC(=O)CSC(SCC(=O)OCC)=C(C#N)C#N
A) 7
